The values you see were collected from paper PMC11325555.

# Test system: COS-7 cells
# ASSAY TEXT: Cytotoxicity toward COS-7 cells (resazurin and CFDA-AM assays)
# REPORTED CONDITIONS: antiandrogenic reporter assay conditions (with testosterone); highest concentration used; 24 h
EXPERIMENTAL ENDPOINT: cytotoxic concentration in COS-7 cells (µM)
Give just the number in µM; leave the unit off.

Would you please give the reported cytotoxic concentration in COS-7 cells of CC(C)c1cc(C(C)(C)c2ccc(O)c(C(C)C)c2)ccc1O with COS-7 cells? 50

Recall the reported cytotoxic concentration in COS-7 cells of Oc1ccc(C2(c3ccc(O)cc3)CCCCC2)cc1 when tested on COS-7 cells. 50

Retrieve cytotoxic concentration in COS-7 cells on COS-7 cells; query CC(C)(c1ccc(OCC2CO2)cc1)c1ccc(OCC2CO2)cc1 (stereo not shown) 50

Look up COS-7 cells data: cytotoxic concentration in COS-7 cells of CC1CC(C)(C)CC(c2ccc(O)cc2)(c2ccc(O)cc2)C1 (stereo not shown) , then report it. 50

* * *

# TEST TARGET: Atlantic cod androgen receptor alpha (gmAra) LBD (Gadus morhua, UniProt D5FIC7)
# Sequence (D5FIC7 409-718): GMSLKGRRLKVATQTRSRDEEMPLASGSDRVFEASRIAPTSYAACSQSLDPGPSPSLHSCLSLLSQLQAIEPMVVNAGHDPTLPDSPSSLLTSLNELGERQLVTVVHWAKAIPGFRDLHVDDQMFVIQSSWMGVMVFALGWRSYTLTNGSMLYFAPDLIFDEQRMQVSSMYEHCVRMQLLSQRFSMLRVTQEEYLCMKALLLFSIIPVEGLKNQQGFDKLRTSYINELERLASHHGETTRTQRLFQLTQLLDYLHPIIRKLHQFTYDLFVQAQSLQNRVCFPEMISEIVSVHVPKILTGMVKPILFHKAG
# ASSAY TEXT: Luciferase reporter gene assay, gmAra agonism (androgenic activity) in transfected COS-7 cells
# REPORTED CONDITIONS: COS-7, monkey, 24 h, read-out: gmAra Emax
EXPERIMENTAL ENDPOINT: maximal fold induction

Identify maximal fold induction associated with the compound CC(C)(c1ccc(OCC2CO2)cc1)c1ccc(OCC2CO2)cc1 (stereo not shown) 1

Return the recorded maximal fold induction value; entry: CC(C)(c1ccc(O)cc1)c1ccc(O)cc1 1.6

Specify measured maximal fold induction for CC(c1ccc(O)cc1)c1ccc(O)cc1 . 1.2

Could you please provide reported maximal fold induction for Oc1ccc(C2(c3ccc(O)cc3)c3ccccc3-c3ccccc32)cc1 ? Thanks! 1.3

* * *

# TEST TARGET: UniProt U5ILH7
# Sequence (U5ILH7 170-455): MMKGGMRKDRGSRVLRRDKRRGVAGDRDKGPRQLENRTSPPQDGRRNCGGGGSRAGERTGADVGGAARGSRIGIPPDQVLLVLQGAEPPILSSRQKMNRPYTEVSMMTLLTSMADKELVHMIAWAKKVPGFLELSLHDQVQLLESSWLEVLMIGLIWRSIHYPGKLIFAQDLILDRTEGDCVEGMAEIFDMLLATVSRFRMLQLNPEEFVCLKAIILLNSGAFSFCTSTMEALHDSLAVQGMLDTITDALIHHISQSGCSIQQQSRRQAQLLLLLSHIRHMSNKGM
# ASSAY TEXT: Luciferase reporter gene assay, gmEra agonism (estrogenic activity) in transfected COS-7 cells
# REPORTED CONDITIONS: gmEra EC50, value given in text
# Description: Ligand activation of gmEra and gmAra was studied with a luciferase reporter gene assay in COS-7 cells transiently transfected with the pCMX-GAL4(DBD)-gmEra(LBD) or pCMX-GAL4(DBD)-gmAra(LBD) plasmid by using the TransIT-LT1 reagent (TransIT-LT1 Transfection Reagent, Mirus). Cells were seeded into 96-well plates (5000 cells/well) and incubated for 24 h before cotransfection with the plasmid mixture (100 ng/well). […]
EXPERIMENTAL ENDPOINT: pEC50
Value format note: pEC50 is -log10 of concentration (mol/L); just state the number.

Send back UniProt U5ILH7 pEC50 of C#C[C@]1(O)CC[C@H]2[C@@H]3CCc4cc(O)ccc4[C@H]3CC[C@@]21C [EE2, 17α-Ethynylestradiol, reference compound] only. 8.17
